system: 60 human cancer cell lines; assay: NCI-60 single-dose cytotoxicity assay; format: cell-based; details: mean-graph midpoint of percent growth of 60 human cancer cell lines, 10 μM drug, 48 h, relative to no-drug control and time zero
hey, just use Met if measured Mean Growth % is less than 70%, otherwise Not met

CPD SMILES | MEASURED TARGET | CLASS NAME
O=C1c2ccccc2-c2c1c1cccnc1c(=O)n2C[C@H](O)CO | 60 human cancer cell lines | Met
O=C1c2ccccc2-c2c1c1ncccc1c(=O)n2CCCn1ccnc1 | 60 human cancer cell lines | Not met
O=C1c2ccccc2-c2c1c1cnccc1c(=O)n2CCCn1ccnc1 | 60 human cancer cell lines | Met
CN(C)CCCn1c2c(c3ncccc3c1=O)C(=O)c1ccccc1-2 | 60 human cancer cell lines | Met
O=C1c2ccccc2-c2c1c1ncccc1c(=O)n2CCCN1CCOCC1 | 60 human cancer cell lines | Not met
